target: adenosine A1 receptor (Rattus norvegicus); construct: brain minus cerebellum and brainstem from male Long Evans rats (150-200 g) was homogenized; from tissue; host or cells: rat whole brain minus cerebellum and brainstem, membrane homogenate; assay: Adenosine Receptor Binding - A1 Receptor Affinity (RBA1), [3H]-CHA displacement; settings: 1.0 nM [3H]-CHA, rat whole brain membranes, one hour at 25°C; read-out: Receptor Binding RBA—1
Sequence (P25099 whole entry): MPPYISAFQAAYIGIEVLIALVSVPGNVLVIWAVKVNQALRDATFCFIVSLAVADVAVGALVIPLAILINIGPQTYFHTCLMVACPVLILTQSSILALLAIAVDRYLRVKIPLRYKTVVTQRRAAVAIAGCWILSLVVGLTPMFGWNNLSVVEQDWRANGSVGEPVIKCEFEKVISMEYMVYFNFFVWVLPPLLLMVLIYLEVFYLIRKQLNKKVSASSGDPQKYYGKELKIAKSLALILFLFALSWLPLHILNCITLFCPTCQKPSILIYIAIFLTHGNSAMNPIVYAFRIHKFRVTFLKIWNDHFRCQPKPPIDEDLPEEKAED
Output: class label from IC50. Mapping: LOW: < 40 nM; MID: ≥ 40 nM and < 200 nM; HIGH: ≥ 200 nM

The entry to classify is C[C@@H](Cc1ccccc1)Nc1ncnc2c1ncn2[C@@H]1O[C@H](CCl)[C@@H](O)[C@H]1O ; which class holds it?
LOW

The entry to classify is CC(=O)O[C@@H]1[C@H](OC(C)=O)[C@@H](C)O[C@H]1n1cnc2c(NCc3cccc4ccccc34)ncnc21 ; which class holds it?
HIGH

The entry to classify is C[C@H]1O[C@@H](n2cnc3c(NC4CCCCC4)ncnc32)[C@H](O)[C@@H]1O [Example 6, N^6-[Cyclohexyl]-5'-deoxyadenosine] ; which class holds it?
MID

The entry to classify is CSC[C@H]1O[C@@H](n2cnc3c(NC4CCCC4)ncnc32)[C@H](O)[C@@H]1O ; which class holds it?
LOW

The entry to classify is O[C@@H]1[C@H](O)[C@@H](CCl)O[C@H]1n1cnc2c(NC3CCc4ccccc43)ncnc21 (some centres unmarked) [Example 23] ; which class holds it?
MID

The entry to classify is C[C@H]1O[C@@H](n2cnc3c(NC4CCc5ccccc54)ncnc32)[C@H](O)[C@@H]1O (some centres unmarked) [Example 2, N^6-[1-Indanyl]-5'-deoxyadenosine] ; which class holds it?
HIGH

The entry to classify is O[C@@H]1[C@H](O)[C@@H](CCl)O[C@H]1n1cnc2c(NC3CCc4ccccc43)ncnc21 (some centres unmarked) [Example 14] ; which class holds it?
HIGH

The entry to classify is CC(=O)O[C@@H]1[C@H](OC(C)=O)[C@@H](C)O[C@H]1n1cnc2c(NC3CCCc4ccccc43)ncnc21 (some centres unmarked) ; which class holds it?
HIGH

The entry to classify is C[C@H]1O[C@@H](n2cnc3c(NC4CCCC4)ncnc32)[C@H](O)[C@@H]1O [Example 5, N^6-[Cyclopentyl]-5'-deoxyadenosine] ; which class holds it?
LOW

The entry to classify is O[C@@H]1[C@H](O)[C@@H](CCl)O[C@H]1n1cnc2c(NC3CCCCC3)ncnc21 ; which class holds it?
LOW

The entry to classify is C[C@H]1O[C@@H](n2cnc3c(NCC(c4ccccc4)c4ccccc4)ncnc32)[C@H](O)[C@@H]1O ; which class holds it?
HIGH
